Reference for the values: a melting point compilation (Tetko et al.; mined from patent text by program, amines drawn as free bases though some values may be those of a salt)

Each entry below carries its reported melting point.

Examples with their reported melting point follow.
NC(=O)[C@@H]1[C@H](Nc2c(Br)cnc3[nH]c(-c4ccoc4)nc23)[C@H]2C=C[C@@H]1C2 :: 231 to 232 °C
CCCC(C(C)=CC(CNC(=O)c1cccnc1)=NO)[N+](=O)[O-] (stereo not given) :: 128 to 131 °C
COC(=O)CCC(=O)c1ccc2c(c1)CC(CO)O2 (stereo not given) :: 70 to 72 °C
Cc1oc(C=Cc2cccc(Cl)c2)nc1CC#N :: 119 to 120 °C

Shift focus to the following entry.
# input What measured melting point goes with CS(=O)(=O)c1cccc(NC(=O)c2cnn3c(C4CC4)cc(-c4ccc(Cl)cc4)nc23)c1 ?
# output 235 to 238 °C

###

Each entry below carries its reported melting point.

CC(=O)Oc1ccc(CC(CC(=O)O)N2C(=O)c3ccccc3C2=O)cc1 (stereo unspecified) :: 151 to 154 °C
CCOCc1nc2c(N)nc3ccccc3c2n1CCCCCS(N)(=O)=O :: 176 to 178 °C
O=c1cc(-c2cc[nH]n2)oc2ccccc12 :: 143 to 144 °C
Cc1ccccc1Oc1cccc2c1OC(=O)C2C (stereo unspecified) :: 45 to 46 °C
C=CCOc1cc(C)c2c(C)cc(=O)oc2c1 :: 178 °C

# input What measured melting point goes with OC1c2cc(OCc3ccc4cc(F)ccc4n3)ccc2OCC1Cc1cncnc1 (stereo unspecified) ?
# output 188 to 191 °C

# input What measured melting point goes with COc1ccc(Sc2ccc(C=[N+]([O-])C(C)(C)C)o2)cc1 ?
# output 91.7 °C

# input What measured melting point goes with COC(=O)c1ccc(OCCCCCOc2ccc(C(=O)OC)cc2)cc1 ?
# output 93 to 95 °C

# input What measured melting point goes with NC(=S)NC(=O)c1ccccc1 ?
# output 170 to 171 °C

# input What measured melting point goes with CCCCCC1CCC(c2ccc3c(c2F)C(F)(F)Oc2c-3ccc(OCCCC)c2F)CC1 (stereo unspecified) ?
# output 99 °C

# input What measured melting point goes with CC(C)NC(=O)NNC=NC(=O)c1nc(F)c(N)nc1N ?
# output 221 °C

###

readout: melting point

NCC(O)c1cc(C(N)=O)c2[nH]ccc2c1 (stereo not given) :: 88 to 90 °C

Shift focus to the following entry.
# input What measured melting point goes with COc1cc(C(=O)N2CCN(C(=O)/C=C(\c3ccc(F)cc3)c3cc(OC)c(OC)c(OC)c3)CC2)cc(OC)c1OC ?
# output 130 to 132 °C

###

Each entry below carries its reported melting point.

Examples with their reported melting point follow.
CN(C)Cc1ccc(/C=C/C(=O)O)cn1 :: 144 °C
CCC12CCC3C4CCCC=C4CCC3C1C=CC2=O (stereo unspecified) :: 125 °C
Cc1cc(-c2cc(COS(C)(=O)=O)c(=O)n(Cc3ccccc3Cl)n2)ccc1F :: 142 to 143 °C
O=C1[C@H]2CCC[C@H]2N(C(=O)CCCCBr)c2ccccc2N1Cc1ccccc1 (relative stereo) :: 134 to 135 °C

# input What measured melting point goes with Cc1c(C(=O)c2ccc(Cl)c(S(N)(=O)=O)c2)sc2ccccc12 ?
# output 210 °C

###

readout: melting point

Examples with their reported melting point follow.
CON=C1CN(c2nc3c(cc2F)c(=O)c(C(=O)O)cn3C2CC2)CC12CN(C)C2 :: 225 to 227 °C
COc1c(C#Cc2ccc(NS(C)(=O)=O)cc2C)cc(N2CCC(=O)NC2=O)cc1C(C)(C)C :: > 280 °C
CCN(C)C(=O)c1cc(-c2ccccc2)c2sccc2c1 :: 93 °C

# input What measured melting point goes with CC(Cc1ccccc1)(NC=O)c1ccccc1 (stereo not given) ?
# output 97 to 99 °C

# input What measured melting point goes with CCNCC1CCN(c2c(F)cc3c(=O)c(C(=O)O)cn(CC(F)(F)F)c3c2F)C1 (stereo not given) ?
# output 222 to 224 °C
